Measured Ki values are reported for all entries that follow.
# target_system: CARTp binding site in PC12 cells (prospective CARTp receptor) (rat)
# experiment: displacement of 125I-CART(61-102) from PC12 cells, Cheng-Prusoff
Bridge positions count the residues as written; N and C are the ends. Square brackets hold non-standard residues; d marks the D form. Ends that are not written are not given here. * marks the point of attachment. Palmitoyl = CCCCCCCCCCCCCCCC(=O)*; Myristoyl = CCCCCCCCCCCCCC(=O)*; Nle = CCCC[C@H](N)C(=O)O; Octanoyl = CCCCCCCC(=O)*
recorded_endpoint: Ki (nM)

KYGQVPMCDAGEQCAVRKGARIGKLCDCPRGTSCNSFLLKCL (disulfide 14-34, 8-26, 28-41) [CART(61-102)]
9.33
Octanoyl-KYGQVP[Nle]ADAGEQCAVRKGARIGKLADCPRGTSCNSFLLKCL (disulfide 14-34, 28-41) [Oct-CART]
76.1
Palmitoyl-KYGQVP[Nle]ADAGEQCAVRKGARIGKLADCPRGTSCNSFLLKCL (disulfide 14-34, 28-41) [Palm-CART]
1.43
Myristoyl-KYGQVP[Nle]ADAGEQCAVRKGARIGKLADCPRGTSCNSFLLKCL (disulfide 14-34, 28-41) [Myr-CART]
12.1
KYGQVP[Nle]ADAGEQCAVRKGARIGKLADCPRGTSCNSFLLKCL (disulfide 14-34, 28-41) [CART 2S-S]
261
